# MEASUREMENT DESCRIPTION: Volume of distribution in Beagle dog at 1 mg/kg, iv
# Type: ADME, organism-based, Canis lupus familiaris
# Parameters: dose 1 mg/kg, route intravenous
# STATED CONDITIONS: in vivo, read-out: Vdss
MEASURED QUANTITY: Vd (L/kg)
Report the figure in L/kg without appending any unit label.

Ask: Name the reported Vd value associated with the molecule CCCOC(=O)N1CCc2c(OCCc3nc(-c4ccc(-c5ccccc5)cc4)oc3C)ccc(CCC(=O)[O-])c2C1.[Na+]
Reply: 0.38

###

# MEASUREMENT DESCRIPTION: Tmax in Beagle dog at 10 mg/kg, po
# Format: ADME, organism-based, Canis lupus familiaris
# Set-up: dose 10 mg/kg, route oral
# STATED CONDITIONS: in vivo
MEASURED QUANTITY: Tmax (h)
Report the figure in h without appending any unit label.

Ask: Item CCCOC(=O)N1CCc2c(OCCc3nc(-c4ccc(-c5ccccc5)cc4)oc3C)ccc(CCC(=O)[O-])c2C1.[Na+] has what recorded Tmax?
Reply: 4
